Hi there, I'd appreciate the recorded IC50 for every entry that follows.
- Test system: Hep-2 cells
- test.summary: MTT antiproliferative activity assay, Hep-2
- Assay type: cell-based
- reported.conditions: Homo sapiens, HEp-2; MTT, 48 h treatment, average of three replicates; read-out: IC50 Hep-2
- Description: Hep-2 (larynx carcinoma, ATCC: CCL-23), MCF-7 (breast epithelial adenocarcinoma, ATCC: HTB-22), and Vero (African green monkey kidney, ATCC: CCL-81) cell lines were kindly provided by Dr. Mona Hassuneh (Department of Biological Sciences, University of Jordan). […] The antiproliferative activity of Inula viscosa compounds was measured using the MTT (3-(4,5-dimethylthiazol-2-yl)-2,5-diphenyltetrazolium bromide) assay (Promega, Madison, WI, USA). […]
Numbers only; they are read as µg/mL.

Could you tell me which IC50 is on file for C=C1C(=O)O[C@H]2CC(=C)[C@H]3CC[C@@](C)(O)[C@@H]3C[C@H]12 [Inuviscolide] ?
149

// next record COc1c(-c2ccc(O)c(O)c2)oc2cc(O)cc(O)c2c1=O
26.1

// next record COc1cc(-c2oc3cc(O)cc(O)c3c(=O)c2OC)ccc1O
28
